Target or system TIPARP GST-(TEV) (Homo sapiens (Human)): recorded pIC50 listed per item.
pIC50: −log10 of the molar value.

{"columns": ["MOLECULE", "pIC50"],
 "data": [
  ["C[C@@H]1CN(C(=O)[C@H]2C[C@@H](c3c[nH]c(=O)c(C(F)(F)F)c3)C2)C[C@H](C)N1c1ncc(C(C)(C)O)cn1", 8.64],
  ["C[C@@H]1CN(C(=O)[C@H]2C[C@@H](c3c[nH]c(=O)c(C(F)(F)F)c3)C2)C[C@H](C)N1c1ncc(C(F)(F)F)cn1", 8.24],
  ["C[C@H]1CN(C(=O)[C@H]2C[C@@H](Cc3c[nH]c(=O)c(C(F)(F)F)c3)C2)CCN1c1ncc(C(C)(C)O)cn1", 8.16],
  ["O=c1[nH]cc(C[C@H]2C[C@@H](C(=O)N3CCN(c4ncc(C(F)(F)F)cn4)CC3)C2)cc1C(F)(F)F", 8.76],
  ["C[C@H]1CN(C(=O)[C@H]2C[C@@H](Cc3c[nH]c(=O)c(C(F)(F)F)c3)C2)CCN1c1ncc(C(F)(F)F)cn1", 8.48],
  ["C[C@@H]1CN(c2ncc(C(F)(F)F)cn2)CCN1C(=O)[C@H]1C[C@@H](Cc2c[nH]c(=O)c(C(F)(F)F)c2)C1", 8.50]
]}

* * *

system: DLD-1 BRCA2 (−/−) cells; test: CellTiter-Glo DLD-1 BRCA2 (−/−) cell assay for PARP1/2 inhibition; assay type: cell-based; details: Homo sapiens, 144 h, 6 days, read-out: DLD-1 BRCA2 (−/−) CTG EC50
pEC50: −log10 of the molar value.
MEASURED_PROPERTY: pEC50

{"columns": ["MOLECULE", "MEASURED_PROPERTY", "BOUND_OPERATOR", "OBSERVED"],
 "data": [
  ["C[C@H]1CN(C(=O)[C@H]2C[C@@H](c3c[nH]c(=O)c(C(F)(F)F)c3)C2)CCN1c1ncc(C(C)(C)O)cn1", "pEC50", "<", 4.52],
  ["C[C@@H]1CN(C(=O)[C@H]2C[C@@H](c3c[nH]c(=O)c(C(F)(F)F)c3)C2)CCN1c1ncc(C(F)(F)F)cn1", "pEC50", "=", 5.30],
  ["C[C@@H]1CN(C(=O)[C@H]2C[C@@H](Cc3c[nH]c(=O)c(C(F)(F)F)c3)C2)CCN1c1ncc(C(C)(C)O)cn1", "pEC50", "=", 5.98],
  ["C[C@@H]1CN(c2ncc(C(C)(C)O)cn2)CCN1C(=O)[C@H]1C[C@@H](c2c[nH]c(=O)c(C(F)(F)F)c2)C1", "pEC50", "<", 4.52],
  ["C[C@@H]1CN(C(=O)[C@H]2C[C@@H](c3c[nH]c(=O)c(C(F)(F)F)c3)C2)C[C@H](C)N1c1ncc(C(F)(F)F)cn1", "pEC50", "=", 5.14],
  ["C[C@H]1CN(c2ncc(C(F)(F)F)cn2)CCN1C(=O)[C@H]1C[C@@H](Cc2c[nH]c(=O)c(C(F)(F)F)c2)C1", "pEC50", "=", 6.66],
  ["C[C@@H]1CN(C(=O)[C@H]2C[C@@H](Cc3c[nH]c(=O)c(C(F)(F)F)c3)C2)CCN1c1ncc(C(F)(F)F)cn1", "pEC50", "=", 5.86],
  ["C[C@@H]1CN(C(=O)[C@H]2C[C@@H](c3c[nH]c(=O)c(C(F)(F)F)c3)C2)C[C@H](C)N1c1ncc(C(C)(C)O)cn1", "pEC50", "=", 4.69],
  ["C[C@@H]1CN(c2ncc(C(F)(F)F)cn2)CCN1C(=O)[C@H]1C[C@@H](Cc2c[nH]c(=O)c(C(F)(F)F)c2)C1", "pEC50", "=", 5.26]
]}

Data credit: patent US20250333394A1
